# Tested on: rainbow trout (Oncorhynchus mykiss)
# PROTOCOL DETAILS: Contribution of tissues to fish body burden
# Type: in vivo
# CONDITIONS: fraction, Fish #1
Decision: Contribution of Skin to the fish's body burden >= 0.1 yields Fulfilled, all other cases yield Not fulfilled.

Query: Has CCCCCCCCCCCCCCCCN a recorded Contribution of Skin to the fish's body burden greater than or equal to 0.1?
Response: Not fulfilled

Query: Check this compound for Contribution of Skin to the fish's body burden at or above 0.1: CCCCCCCCCCCCCN(C)C
Response: Fulfilled

Query: Please indicate if the recorded Contribution of Skin to the fish's body burden for CCCCCCCCCN(C)C meets or exceeds 0.1.
Response: Fulfilled

// data source = paper PMC7343282
